- Test system: BT-549 breast
- Test Name: NCI-60 one-dose screen, 48 h (100 = growth as untreated, 0 = no growth, -100 = all killed)
- Measurement Conditions: 10 µM unless noted
This is part of a sample that, as a whole, favours compounds with a hit. Of some 83,000 tested, about 20% had one in any assay. The source made the active and inactive calls. How the source made its calls: active means growth percent below 10; inactive means the rest.
Value Kind: growth

Reference set (10 entries):
COc1cc(/C=C\C(C)=N\Nc2ccccc2)ccc1O | 102% (inactive)
OCc1n(Cc2ccc3ccccc3c2)cc[n+]1Cc1ccc2ccccc2c1 | 31.2% (inactive)
Cc1cc2ccccn2c1C(=O)c1ccc(C(=O)c2ccccc2)cc1 | 92.5% (inactive)
COc1cc(/C=C/C(=O)c2c(C)n([O-])c3ccccc3[n+]2=O)cc(OC)c1OC | 27.3% (inactive)
O=C(COc1cccc(/C=C2\Cc3ccccc3C2=O)c1)c1ccc(Cl)cc1 | 99.4% (inactive)
O=C(COc1cccc(/C=C2\Oc3ccc4ccccc4c3C2=O)c1)c1ccc([N+](=O)[O-])cc1 | -81.9% (active)
Cc1sc2nc(NCc3ccccc3)[nH]c(=O)c2c1C | 53.9% (inactive)
COCCOCCOCCOCCOc1ccc2c(c1)C(=O)c1nc3ncccc3c(=O)n1-2 | -95.7% (active)
N#Cc1c(-c2ccc(F)cc2)n2c(nc1=O)SC(=O)C2=O | 99.1% (inactive)
COc1cc2c(cc1OC)C(=O)/C(=C/c1cccc(OCC(=O)c3ccccc3)c1)C2 | 49.4% (inactive)

// growth (BT-549 breast) for `CCOC(=O)C(C(=O)OCC)C1CCCCC1` = 104% (inactive)

Record `CCN(CC)c1ccc(C(=C2C=CC(=[N+](CC)Cc3cccc(S(=O)(=O)O)c3)C=C2)c2ccc(N(CC)Cc3cccc(S(=O)(=O)O)c3)cc2)cc1` ; system BT-549 breast; growth = 46.6% (inactive)

Record `CCCCCCCCCCNCCSS(=O)(=O)O` ; system BT-549 breast; growth = 113% (inactive)
